target_or_test_system: von Hippel-Lindau disease tumor suppressor/Fibroblast growth factor receptor 1 (Homo sapiens) (UniProt P11362+P40337)
Sequence (P11362 22-822 limits assumed): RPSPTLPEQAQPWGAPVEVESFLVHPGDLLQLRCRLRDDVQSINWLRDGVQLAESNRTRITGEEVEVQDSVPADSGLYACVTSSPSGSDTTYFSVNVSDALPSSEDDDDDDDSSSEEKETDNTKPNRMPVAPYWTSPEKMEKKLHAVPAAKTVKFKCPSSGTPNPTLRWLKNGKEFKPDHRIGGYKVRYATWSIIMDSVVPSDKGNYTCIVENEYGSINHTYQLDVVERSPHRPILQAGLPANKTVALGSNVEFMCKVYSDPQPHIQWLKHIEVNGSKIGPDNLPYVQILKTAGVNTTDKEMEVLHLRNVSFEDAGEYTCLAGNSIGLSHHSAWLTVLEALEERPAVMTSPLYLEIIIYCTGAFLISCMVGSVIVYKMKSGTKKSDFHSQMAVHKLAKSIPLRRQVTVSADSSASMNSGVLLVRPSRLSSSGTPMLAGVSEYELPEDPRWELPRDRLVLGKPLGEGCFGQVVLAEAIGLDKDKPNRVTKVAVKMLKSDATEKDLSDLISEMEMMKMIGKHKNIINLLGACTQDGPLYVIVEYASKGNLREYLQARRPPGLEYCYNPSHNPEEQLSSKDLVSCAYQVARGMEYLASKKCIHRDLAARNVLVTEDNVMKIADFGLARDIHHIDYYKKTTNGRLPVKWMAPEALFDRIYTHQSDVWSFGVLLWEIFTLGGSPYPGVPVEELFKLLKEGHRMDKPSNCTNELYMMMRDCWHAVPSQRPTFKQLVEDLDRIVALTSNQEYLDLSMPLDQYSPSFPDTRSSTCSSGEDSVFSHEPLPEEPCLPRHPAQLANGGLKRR
Sequence (P40337 whole entry partner): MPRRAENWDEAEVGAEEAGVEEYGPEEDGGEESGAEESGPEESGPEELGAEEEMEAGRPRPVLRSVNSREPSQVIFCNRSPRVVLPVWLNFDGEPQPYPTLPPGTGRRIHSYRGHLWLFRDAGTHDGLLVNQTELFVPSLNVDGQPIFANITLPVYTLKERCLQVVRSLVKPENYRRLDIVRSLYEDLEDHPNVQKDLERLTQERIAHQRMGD
test_protocol: PROTAC activity at FGFR1/VHL in human MCF7 cells assessed as FGFR1 degradation at 100 nM incubated for 6 hrs by Western blot analysis
Assay type: cell-based
Activity calls are given as the source filed them. No cut-off for these calls is given here.
readout_kind: Activity

COc1cc(CCc2cc(NC(=O)c3ccc(N4C[C@@H](C)N(CC(=O)N/N=C\c5ccc(OCC(=O)N[C@H](C(=O)N6C[C@H](O)C[C@H]6C(=O)N[C@@H](C)c6ccc(-c7scnc7C)cc6)C(C)(C)C)cc5)[C@@H](C)C4)cc3)n[nH]2)cc(OC)c1 : Active
COc1cc(CCc2cc(NC(=O)c3ccc(N4C[C@@H](C)N(CC(=O)N/N=C/c5ccc(OCCOCCOCCOCCOCC(=O)N[C@H](C(=O)N6C[C@H](O)C[C@H]6C(=O)N[C@@H](C)c6ccc(-c7scnc7C)cc6)C(C)(C)C)cc5)[C@@H](C)C4)cc3)n[nH]2)cc(OC)c1 : Active
COc1cc(CCc2cc(NC(=O)c3ccc(N4C[C@@H](C)N(CC(=O)N/N=C\c5ccc(OCCCCC(=O)N[C@H](C(=O)N6C[C@H](O)C[C@H]6C(=O)N[C@@H](C)c6ccc(-c7scnc7C)cc6)C(C)(C)C)cc5)[C@@H](C)C4)cc3)n[nH]2)cc(OC)c1 : Active
COc1cc(CCc2cc(NC(=O)c3ccc(N4C[C@@H](C)N(CC(=O)N/N=C/c5ccc(OCCOCCOCCOCC(=O)N[C@H](C(=O)N6C[C@H](O)C[C@H]6C(=O)N[C@@H](C)c6ccc(-c7scnc7C)cc6)C(C)(C)C)cc5)[C@@H](C)C4)cc3)n[nH]2)cc(OC)c1 : Active
